Assay: log P by HPLC on reversed-phase column (C 18), EEC Directive 79/831 Annex V.A8
Type: physicochemical
Settings: 40° C., 0.1% aqueous formic acid and acetonitrile
# thresholds on logP define classes: b0 (below 3), b1 (3 to below 4), b2 (4 or more)

compound="Cn1nc(C(F)F)c(C(=O)N2CCCCC2CCOCCC2CCCCC2)c1F (stereo not drawn)" group=b2
compound="CCCCCCC1CCCCN1C(=O)c1cn(C)nc1C(F)F (stereo not drawn)" group=b1
compound="CCCOCCC1CCCCN1C(=O)c1c(C(F)F)nn(C)c1Cl (stereo not drawn)" group=b0
compound="CCCCCCC1CCCN1C(=O)c1c(C(F)F)nn(C)c1F (stereo not drawn)" group=b1
compound="Cn1nc(C(F)F)c(C(=O)N2CCCCC2C(F)(F)F)c1Cl (stereo not drawn)" group=b0
compound="Cn1nc(C(F)F)c(C(=O)N2CCCCC2CCOCCC2CCCCC2)c1Cl (stereo not drawn)" group=b2
compound="Cn1nc(C(F)F)c(C(=O)N2CCCC2C23CC4CC(CC(C4)C2)C3)c1F (stereo not drawn)" group=b2
compound="Cn1nc(C(F)F)c(C(=O)N2CCCCC2C(F)(F)F)c1F (stereo not drawn)" group=b0
compound="Cn1cc(C(=O)N2CCCCC2C2CCCCC2)c(C(F)F)n1 (stereo not drawn)" group=b1
compound="Cn1nc(C(F)F)c(C(=O)N2CCCC2C2CCCCC2)c1Cl (stereo not drawn)" group=b1
compound="COCCCOCCC1CCCCN1C(=O)c1c(C(F)F)nn(C)c1F (stereo not drawn)" group=b0
compound="CCCCOCCC1CCCCN1C(=O)c1cn(C)nc1C(F)F (stereo not drawn)" group=b0
compound="COCCCC1CCCCN1C(=O)c1cn(C)nc1C(F)F (stereo not drawn)" group=b0
compound="CCCCCCC1CCCCN1C(=O)c1c(C(F)F)nn(C)c1F (stereo not drawn)" group=b2
compound="CCCCOCCC1CCCCN1C(=O)c1c(C(F)F)nn(C)c1F (stereo not drawn)" group=b1
